Assay: yeast display, Sf9 membrane polyspecificity reagent, FACS + sequencing; frameworks hold sequencing errors
Reported property: polyreactivity (PSR sort gate)

1) QVQLVESGVGLVQSGGSLRLSCAASGFSIEPYAMGLYRQAPGKERELVAAISWSGGSTYYADSVKGRFTISRDNAKNTVYLQMNSLKPEDTAVYYCAAEWYNSAYYEYDYWGQGTQVTVST; high polyreactivity
2) QVQLVESGGGLVQAGGSLRLSCAASGLTFRYYSMGWYRQAPGKERELVAAISRRSGSTYYADSVKGRFTISGDNAKNTVYLQMNSLKPEDTAVYYCNADSTITGNLKRYDYWGQGTQVTVSS; high polyreactivity
3) QVQLVESGGGLVQAGGSLRLSCAASGFIFYLYAMGWYRQAPGKERELVAAISSSGGGTYYADSVKGRFTISRDNAKNTVYLQMNSLKPEDTAVYYCNVPLSYRSEYDYWGQGTQVTVSS; high polyreactivity
4) QVQLVESGGGLVQAGGSLRLSCAASGRTFRYYAMGWYRPAPGKERELVATITGSGGSTYYADSVKGRFTISRDNAKNTVYLQMNSLKPEDTAVYDCNARKVRYPYRWYVYWGQGTQVTVSS; high polyreactivity
